target: human C5 (human, UniProt P01031 19-1676); test: cell-based or functional assay
Friendly reminder: Human CP IC50, hemolysis assay, NHS below 3 nM is 1, at or above is -1.

Solved cases below.
H4H12167P (antibody, human IgG4, V domains shown, H4H: human IgG4 Fc with S108P hinge mutation) VH: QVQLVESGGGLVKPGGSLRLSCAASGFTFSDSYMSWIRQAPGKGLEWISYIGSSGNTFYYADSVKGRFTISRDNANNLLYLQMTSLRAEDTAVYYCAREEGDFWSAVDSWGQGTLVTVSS VL: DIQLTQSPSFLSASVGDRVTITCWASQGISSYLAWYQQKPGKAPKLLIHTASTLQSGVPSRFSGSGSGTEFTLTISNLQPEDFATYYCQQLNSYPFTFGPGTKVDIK	-1
H4H12161P (antibody, human IgG4, V domains shown, H4H: human IgG4 Fc with S108P hinge mutation) VH: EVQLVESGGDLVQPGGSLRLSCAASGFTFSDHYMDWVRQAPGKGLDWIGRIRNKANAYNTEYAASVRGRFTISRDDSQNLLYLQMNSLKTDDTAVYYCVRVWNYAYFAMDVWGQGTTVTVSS VL: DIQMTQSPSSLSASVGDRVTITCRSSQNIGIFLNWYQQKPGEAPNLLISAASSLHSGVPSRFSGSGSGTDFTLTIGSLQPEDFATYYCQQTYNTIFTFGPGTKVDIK	1
H4H11683N (antibody, human IgG4, V domains shown, tested with H4H prefix (human IgG4 Fc with S108P hinge mutation); variable regions follow the numerical identifier; also called H2M11683N) VH: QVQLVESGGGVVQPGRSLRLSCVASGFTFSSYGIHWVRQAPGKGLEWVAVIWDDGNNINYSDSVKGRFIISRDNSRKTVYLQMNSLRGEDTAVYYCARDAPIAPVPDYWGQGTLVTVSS VL: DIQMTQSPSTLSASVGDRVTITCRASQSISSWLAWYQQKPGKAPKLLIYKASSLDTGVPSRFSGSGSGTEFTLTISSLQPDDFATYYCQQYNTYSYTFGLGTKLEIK	1
H4H12168P (antibody, human IgG4, V domains shown, H4H: human IgG4 Fc with S108P hinge mutation) VH: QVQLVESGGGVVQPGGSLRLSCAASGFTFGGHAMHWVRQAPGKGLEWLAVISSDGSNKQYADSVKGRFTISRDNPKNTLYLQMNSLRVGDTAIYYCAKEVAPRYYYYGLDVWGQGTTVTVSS VL: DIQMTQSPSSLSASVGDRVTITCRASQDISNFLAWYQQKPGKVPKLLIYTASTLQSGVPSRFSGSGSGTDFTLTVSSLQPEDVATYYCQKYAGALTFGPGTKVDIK	-1

Kindly review the next binder as well.
Please check: Human CP IC50, hemolysis assay, NHS for H4H12164P (antibody, human IgG4, V domains shown, H4H: human IgG4 Fc with S108P hinge mutation) VH: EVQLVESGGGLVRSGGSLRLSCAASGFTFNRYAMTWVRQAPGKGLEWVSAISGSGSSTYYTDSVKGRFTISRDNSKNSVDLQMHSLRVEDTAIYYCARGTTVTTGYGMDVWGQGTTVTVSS VL: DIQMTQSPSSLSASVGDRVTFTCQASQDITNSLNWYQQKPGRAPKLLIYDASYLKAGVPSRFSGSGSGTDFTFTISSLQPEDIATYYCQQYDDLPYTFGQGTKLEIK , strictly under 3 nM or not?
1
